Quick reference: normalized growth of the listed items.
experiment: chemical genetic growth profiling, strain panel (AID 1159580);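 further: tested at 20 µM; growth read once vehicle control cultures reached saturation at 30 °C; 1 = growth at the plate median or of vehicle wells; lower values mean less growth of the strain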; settings: S. cerevisiae deletion strains, growth OD, locus YJR066W, strain TOR1, hits give low values
Hit rate of the full screen: of about 5,500 compounds, about 2,000 (36%) were called active. Another 18% or so got no clear call; they are omitted. This is one part of the list.

| compound | normalized growth |
| --- | --- |
| COc1cc(OC)c2ccc(=O)oc2c1 | 0.958 |
| CNC(C)C(O)c1ccccc1 (stereo not drawn) | 0.987 |
| C[N+](C)(C)CC(O)CC(=O)O (stereo not drawn) | 0.929 |

###

test: chemical genetic growth profiling, strain panel (AID 1159580);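 further: tested at 20 µM; growth read once vehicle control cultures reached saturation at 30 °C; 1 = growth at the plate median or of vehicle wells; lower values mean less growth of the strain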; conditions: S. cerevisiae deletion strains, growth OD, locus YHR013C, strain ard1, hits give low values
Out of some 5,500 compounds screened, about 2,000 (36%) were called active. About 18% were inconclusive and are not listed. The list shows a part of the results.
Quick reference: normalized growth of the listed items.
measurement-label: normalized growth

| compound | reading |
| --- | --- |
| C=CC1C2=CCOC(=O)C2=COC1OC1OC(CO)C(O)C(O)C1O (stereo not given) | 1.04 |
| CC1(C)C2CC(=O)[C@]3(C)C(CC[C@@]4(C)[C@H](c5ccoc5)OC(=O)C5OC543)[C@@]2(C)[C@@H](O)C[C@H]1O (stereo not given in full) | 1.02 |
| CC1(C)C(=O)C=C[C@@]2(C)C1C=C[C@]1(C)C2CC[C@@]2(C)[C@H](c3ccoc3)OC(=O)C3OC321 (stereo not given in full) | 0.916 |
| CC(C)[N+](C)(CCC(C(N)=O)(c1ccccc1)c1ccccc1)C(C)C | 0.961 |
| CCCCOc1cc(C(=O)NCCN(CC)CC)c2ccccc2n1 | 1.01 |

###

assay: chemical genetic growth profiling, strain panel (AID 1159580);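 further: tested at 20 µM; growth read once vehicle control cultures reached saturation at 30 °C; 1 = growth at the plate median or of vehicle wells; lower values mean less growth of the strain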; conditions: S. cerevisiae deletion strains, growth OD, locus YDL017W, strain CDC7, hits give low values
The campaign covered roughly 5,500 compounds. About 2,000 (36%) were called active. About 18% were inconclusive and are not listed. This is one part of the list.
measurement-label: normalized growth

| compound | measurement-label | reading |
| --- | --- | --- |
| Cc1ccc(NNC(=O)c2cccs2)cc1Cl | normalized growth | 0.979 |
| O=C1Nc2ccccc2/C1=C/c1ccc(Oc2ccccc2)nc1 | normalized growth | 0.973 |
| CC(C)(C)NC(=S)N/N=C\c1ccccc1O | normalized growth | 0.96 |
| Oc1c(Br)cc(Br)cc1/C=N\n1cnnc1 | normalized growth | 0.943 |
| O=C1Nc2ccccc2/C1=C\c1c(Cl)cccc1Cl | normalized growth | 0.969 |
| CC(NC(=S)N/N=C\c1ccccc1O)c1ccccc1 (stereo not given) | normalized growth | 0.974 |
| Cc1c(C)c(C)c(C(O)c2ccccc2)c(C)c1C (stereo not given) | normalized growth | 1.01 |
| Cc1cc(Oc2ccc(C(F)(F)F)cc2NS(C)(=O)=O)cc(C)c1Cl | normalized growth | 0.982 |
| Oc1c(Cl)cc(Cl)cc1/C=N\NC(=S)Nc1cc(C(F)(F)F)cc(C(F)(F)F)c1 | normalized growth | 0.889 |
| Cc1ccc(C)n1-c1ccc(/C=C2/C(=O)Nc3ccccc32)cc1 | normalized growth | 0.971 |
